# Read-out: Forkhead box O3 (FOXO3), FOXO3 (gene 2309)
# assay-explanation: LTEA_HepaRG_FOXO3: Life Technologies and Expression Analysis (LTEA) Assay for Forkhead box O3 (FOXO3) using HepaRG (AID 2283459)
# measurement-parameters: mRNA level, 48 h; actives raise or lower the signal
# Procedure: LTEA_HepaRG is a cell based, multiplexed-readout assay that uses HepaRG, a human liver cell line, with measurements taken at 48 hours after chemical dosing on a 96-well plate.LTEA_HepaRG_FOXO3 is one of 102 assay component(s) measured in the LTEA HepaRG cell culture assay. It is a marker of Cell proliferation, survival, death.Data from the assay component LTEA_HepaRG_FOXO3 was analyzed into 1 endpoint. […]
The source made the active and inactive calls. Rule for the calls: active = hit-call score of the fitted dose curve at least 0.9, where 1 is the maximum; inactive = score below 0.9.
Outcome (select one): label 1 (active), label 0 (inactive)

Reference set, count: 5
CC(C)(C)OOC(=O)c1ccccc1 :: label 0
CCOc1cccc(C2(N3CCN(c4ccccc4)CC3)CCC(C)CC2)c1 (stereo not given) :: label 0
Nc1ccc(N=Nc2ccccc2)cc1 :: label 1
C1=Cc2cccc3cccc1c23 :: label 0
Cc1cc(N=Nc2ccccc2C)ccc1N :: label 1

INPUT: I would be grateful if you could indicate the recorded call for `CCCCCOC(=O)c1ccccc1C(=O)OCCCCC` .
OUTPUT: label 0

INPUT: And `Clc1ccc(Cl)c(Cl)c1` ?
OUTPUT: label 0

INPUT: Follow-up item: `CCN(CC)N=O`
OUTPUT: label 0

INPUT: Also check `O=C(Oc1ccc(Br)cc1)N1CCN2CCC1CC2`
OUTPUT: label 0

INPUT: Note, next up: `CC(C)(C)OOC(C)(C)CCC(C)(C)OOC(C)(C)C`
OUTPUT: label 0

INPUT: Same read-out for `Oc1ccccc1Cl` ?
OUTPUT: label 0

INPUT: Request: `O=Cc1ccco1`
OUTPUT: label 0

INPUT: Next compound up: `CCOC(=O)[C@]1(c2ccccc2)Oc2ccccc2[C@@H]1N`
OUTPUT: label 0

INPUT: What about this compound? `Nc1ccc(Cl)cc1N`
OUTPUT: label 1

INPUT: Same question for `Nc1ccc(Oc2ccc(N)cc2)cc1` please.
OUTPUT: label 0

###

# assay-explanation: CCTE_Deisenroth_AIME_384WELL_CTox_Active: Cytotoxicity Assessment (CTOX) in CCTE's 384-well Estrogen Receptor Transactivation Assay with AIME metabolic competence (metabolism positive), Deisenroth Lab (AID 2284037);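 note: chemicals first conditioned 2 h by alginate-bound induced rat liver S9 before cells; activity means signal loss indicating cell death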
Results filed as inconclusive are left out. Calls of active or inactive are those of the source. Rule for the calls: active = hit-call score of the fitted dose curve at least 0.9, where 1 is the maximum; inconclusive = response in the unintended direction; inactive = score below 0.9.
Allowed answers: active, inactive

INPUT: Check the results log: what was the call for `CN(C)[C@@H]1C(=O)C(C(N)=O)=C(O)[C@@]2(O)C(=O)C3=C(O)c4c(O)cccc4[C@@](C)(O)[C@H]3C[C@@H]12` ?
OUTPUT: inactive

###

# assay-explanation: ATG_M_32_TRANS: Attagene TRANS-FACTORIAL HepG2 Assay for M32 Transcription Factor (Internal Marker) (AID 2282984);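 note: transcript level of a background control reporter unit measured by RT-PCR and capillary electrophoresis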
# measurement-parameters: HepG2 Attagene TRANS M32 internal marker reporter
Results filed as inconclusive are left out. Active and inactive are the calls of the source. How the source made its calls: active means hit-call score of the fitted dose curve at least 0.9, where 1 is the maximum; inconclusive means response in the unintended direction; inactive means score below 0.9.
readout-name: outcome

For orientation, consider the following solved cases.
ClCCOCCCl :: inactive
C1=Cc2cccc3cccc1c23 :: inactive
CN(C)C(=O)Nc1ccc(Cl)cc1 :: inactive
O=C(Nc1ccccc1)c1ccccc1I :: inactive

INPUT: // lookup outcome for `CO[C@@H]1[C@H](OC(=O)NC(=O)CCl)CC[C@]2(CO2)[C@H]1[C@@]1(C)O[C@@H]1CC=C(C)C`
OUTPUT: inactive

INPUT: Okay, and `COC(=O)Nc1nc2ccccc2[nH]1` ?
OUTPUT: inactive

INPUT: Now try `Cc1cc(N=Nc2ccccc2C)ccc1N` .
OUTPUT: inactive
